Experiment: Mouse pharmacokinetics
Type: in vivo
Settings: female, C57Bl/6J, mouse, plasma, po, 100 mg/kg, pH 4.5
Measured property: bioavailability (%)
Unit % implied. Number only.

For the compound CC(C)NCC1CCc2cc(CO)c([N+](=O)[O-])cc2N1 (stereo not shown) , what bioavailability is on record?
69.5

----------
Test: Mouse pharmacokinetics
Type: in vivo
Conditions: female, C57Bl/6J, mouse, plasma, iv, 3 mg/kg
Measured property: clearance (mL/min/kg)
Unit mL/min/kg implied. Number only.

For the compound CC(C)NCC1CCc2cc(CO)c([N+](=O)[O-])cc2N1 (stereo not shown) [OXA, oxamniquine] , what clearance is on record?
157

----------
Assay: Mouse pharmacokinetics
Format: in vivo
Settings: female, C57Bl/6J, mouse, plasma, po, 100 mg/kg, pH 4.5
Measured property: Cmax (µM)
Unit µM implied. Number only.

For the compound CC(C)NCC1CCc2cc(CO)c([N+](=O)[O-])cc2N1 (stereo not shown) [OXA, oxamniquine] , what Cmax is on record?
11.8

----------
Experiment: Mouse pharmacokinetics
Type: in vivo
Conditions: female, C57Bl/6J, mouse, plasma, iv, 3 mg/kg
Measured property: Cmax (nM)
Unit nM implied. Number only.

For the compound CC(C)NCC1CCc2cc(CO)c([N+](=O)[O-])cc2N1 (stereo not shown) , what Cmax is on record?
2200

----------
Experiment: Estimation of mouse hepatic inlet
Conditions: C57Bl/6J, mouse, in vivo, po, 100 mg/kg, ke elimination rate constant, 100 mg/kg PO acetate buffer, method of residuals
Measured property: k el (s⁻¹)
Unit s⁻¹ implied. Number only.

For the compound CC(C)NCC1CCc2cc(CO)c([N+](=O)[O-])cc2N1 (stereo not shown) , what k el is on record?
0.0002

----------
Assay: Mouse pharmacokinetics
Format: in vivo
Details: female, C57Bl/6J, mouse, plasma, iv, 3 mg/kg
Measured property: half-life (min)
Unit min implied. Number only.

For the compound CC(C)NCC1CCc2cc(CO)c([N+](=O)[O-])cc2N1 (stereo not shown) , what half-life is on record?
51

----------
Assay: Mouse pharmacokinetics
Type: in vivo
Details: female, C57Bl/6J, mouse, plasma, po, 100 mg/kg, pH 4.5
Measured property: half-life

For the compound CC(C)NCC1CCc2cc(CO)c([N+](=O)[O-])cc2N1 (stereo not shown) , what half-life is on record?
58 min

----------
Assay: Mouse pharmacokinetics
Assay type: in vivo
Settings: female, C57Bl/6J, mouse, plasma, po, 100 mg/kg, pH 4.5
Measured property: Tmax (min)
Unit min implied. Number only.

For the molecule CC(C)NCC1CCc2cc(CO)c([N+](=O)[O-])cc2N1 (stereo not shown) , what Tmax is on record?
50

----------
Assay: Mouse pharmacokinetics
Assay type: in vivo
Conditions: female, C57Bl/6J, mouse, plasma, iv, 3 mg/kg
Measured property: AUC(0-inf)

For the molecule CC(C)NCC1CCc2cc(CO)c([N+](=O)[O-])cc2N1 (stereo not shown) , what AUC(0-inf) is on record?
1.1 µM·h

----------
Experiment: Blood to plasma ratio, Rb
Format: in vitro ADME
Details: female, C57Bl/6J, mouse, fresh heparinized whole blood and fresh plasma
Measured property: blood plasma ratio at 30 min, 5 μM
I only need the number, thanks.

For the compound CC(C)NCC1CCc2cc(CO)c([N+](=O)[O-])cc2N1 (stereo not shown) , what blood plasma ratio at 30 min, 5 μM is on record?
1.6
